assay: Solubility studies of compound I; format: physicochemical; conditions: EtOH, organic solvent or mixture, EtOH (temperature not given); read-out: Solubility
Structures can show the parent of a compound that is named as a salt.
result.type: solubility (µg/mL)
The response must be a number in µg/mL with no trailing unit.

**Q:** Could you tell me which solubility is on file for C#CCOc1ccc(Nc2nc(Nc3ccc(C)c(S(N)(=O)=O)c3)ncc2F)cc1 [Compound I HCl] ?
**A:** 300

* * *

experiment: Solubility studies of compound I; type: physicochemical; details: 90% THF-10% PEG400, organic solvent or mixture, 90% THF-10% PEG400; read-out: Solubility
result.type: solubility (mg/mL)
API: value field is a number in mg/mL; no unit string.

**Q:** Item C#CCOc1ccc(Nc2nc(Nc3ccc(C)c(S(N)(=O)=O)c3)ncc2F)cc1 [Compound I] has what recorded solubility?
**A:** 75
